# System: C-33-A
# method.notes: Antiproliferative activity against human C33A cells assessed as reduction in cell viability at 0.1 to 30 uM after 72 hrs by MTT assay
# Format: functional, cell-based
# measurement.conditions: dose microM 0.1-30, time 72.0 hrs
Active and inactive are the calls of the source. The rule behind the calls is not given here.
Hi! Could you answer with just one of these? 1 for active, -1 for inactive

Here's what some known entries look like.
>>> print(df.to_string())
                                   compound  answer_label
0  C=CC1=C(C)C(=O)C=C2c3ccc(O)c(C)c3CC[C@]21OCC            -1
1  C=CC1=C(C)C(=O)C=C2C3(OCC)C=CC(=O)C(C)=C3CCC21OCC (racemic)            -1
2  C=Cc1c(C)c(O)cc2c3c(ccc12)C(C)(OCC)C(=O)C=C3 (racemic)            -1

**Q:** Which outcome was assigned to C=Cc1c(C)c(O)c(OC)c2c3c(ccc12)C(C)(OC)C(=O)C=C3 (racemic) in this test?
**A:** -1

**Q:** Which outcome was assigned to C=CC1=C(C)C(=O)C=C2C3=C(CCC21OCC)C(C)(OCC)C(=O)C=C3 (racemic; 6b) in this test?
**A:** 1

**Q:** Which outcome was assigned to C=CC1=C(C)C(=O)C=C2C3(OC)C=CC(=O)C(C)=C3CCC21OC (racemic; 2a) in this test?
**A:** -1

* * *

The entries below are paired with their reported IC50.
# System: A2780
# method.notes: Antiproliferative activity against human A2780 cells assessed as reduction in cell viability after 72 hrs by MTT assay
# Format: functional, cell-based
# measurement.conditions: A2780, 72 h
Reply with a number, then the unit it belongs to.

Below, each entry is followed by its recorded IC50 result.
                                   compound  test_value
0        C=Cc1c(C)c(O)cc2c1CCc1c-2ccc(O)c1C      7.3 µM
1  C=CC1=C(C)C(=O)C=C2c3ccc(O)c(C)c3CC[C@@]21OCC      2.8 µM
2  C=CC1=C(C)C(=O)C=C2C3=C(CC[C@@]21OC)[C@](C)(OC)C(=O)C=C3 (stereo in doubt)      7.7 µM

Now turn to the next compound.
**Q:** // lookup IC50 for C=CC1=C(C)C(=O)C=C2c3ccc(O)c(C)c3CC[C@@]21OC
**A:** 8.7 µM

* * *

# Tested on: NIH3T3
# method.notes: Antiproliferative activity against mouse NIH/3T3 cells assessed as reduction in cell viability at 0.1 to 30 uM after 72 hrs by MTT assay
# Format: functional, cell-based
# measurement.conditions: dose microM 0.1-30, time 72.0 hrs
Activity calls are given as the source filed them. No cut-off for these calls is given here.
Hi! Could you answer with just one of these? true (active), false (inactive)

Here's what some known entries look like.
                                   molecule  answer_label
0  C=CC1=C(C)C(=O)C=C2C3=C(CCC21OCC)C(C)(OCC)C(=O)C=C3 (racemic; 6a)          true
1  C=CC1=C(C)C(=O)C=C2C3(OCC)C=CC(=O)C(C)=C3CCC21OCC (racemic)         false
2  C=CC1=C(C)C(=O)C=C2C3(OC)C=CC(=O)C(C)=C3CCC21OC (racemic; 2b)         false

**Q:** Which outcome was assigned to C=CC1=C(C)C(=O)C(OCCCC)(OCCCC)c2c1ccc1c2C=CC(=O)C1(C)OCCCC (racemic) in this test?
**A:** false

Where do these numbers come from? They come from ChEMBL document CHEMBL4699576.
